Biological target: α-mannosidase (jack beans) (Canavalia ensiformis)
Sequence (C0HJB3 1-981): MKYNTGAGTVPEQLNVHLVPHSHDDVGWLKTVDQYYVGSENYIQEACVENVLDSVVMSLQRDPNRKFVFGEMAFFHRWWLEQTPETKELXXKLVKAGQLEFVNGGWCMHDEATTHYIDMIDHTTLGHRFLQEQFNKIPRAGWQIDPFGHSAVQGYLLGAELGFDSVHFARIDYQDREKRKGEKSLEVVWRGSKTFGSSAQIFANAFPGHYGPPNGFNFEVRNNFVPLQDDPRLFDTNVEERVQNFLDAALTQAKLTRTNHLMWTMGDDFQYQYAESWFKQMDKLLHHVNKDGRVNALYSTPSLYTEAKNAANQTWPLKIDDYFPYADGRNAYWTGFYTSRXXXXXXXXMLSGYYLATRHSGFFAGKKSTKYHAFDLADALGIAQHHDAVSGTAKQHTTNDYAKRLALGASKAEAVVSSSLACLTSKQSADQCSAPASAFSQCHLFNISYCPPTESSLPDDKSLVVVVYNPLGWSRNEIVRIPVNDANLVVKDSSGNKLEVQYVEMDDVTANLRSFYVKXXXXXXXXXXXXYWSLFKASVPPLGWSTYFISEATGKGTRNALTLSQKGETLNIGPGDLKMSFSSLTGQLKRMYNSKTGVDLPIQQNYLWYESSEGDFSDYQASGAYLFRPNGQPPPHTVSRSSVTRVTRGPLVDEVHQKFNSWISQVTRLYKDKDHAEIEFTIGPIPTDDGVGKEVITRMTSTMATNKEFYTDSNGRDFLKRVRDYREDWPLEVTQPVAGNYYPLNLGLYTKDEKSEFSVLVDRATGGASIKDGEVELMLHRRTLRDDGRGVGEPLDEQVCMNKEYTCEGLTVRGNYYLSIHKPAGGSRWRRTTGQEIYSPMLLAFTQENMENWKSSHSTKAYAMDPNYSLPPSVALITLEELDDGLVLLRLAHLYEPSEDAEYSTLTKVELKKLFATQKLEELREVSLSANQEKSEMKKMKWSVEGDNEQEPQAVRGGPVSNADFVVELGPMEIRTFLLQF
readout.type: pKi
Convention used: pKi is expressed as -log10 of the molar concentration.

compound | pKi
CCNN1C(=N)[C@@H](O)[C@H](O)[C@H]1CO.Cl [5Cl] | 5.85

### Prompt What measured pKi goes with Cl.N=C1[C@@H](O)[C@H](O)[C@@H](CO)N1N [4Cl] ?
### Response 6.64

---

target: α-glucosidase (S. cerevisiae); experiment: Glycosidase inhibition assay, α-glucosidase; details: pH 6.8, 25 °C; 100 μM = maximum inhibitor concentration tested
Listed here are compounds together with their documented IC50.
Please give a number only; it is taken to be in µM.

compound | target | observed
OC[C@H]1CNC[C@@H](O)[C@@H]1O [compound 1, isofagomine, reference compound] | α-glucosidase (S. cerevisiae) | 32

We now examine a further compound.
### Prompt What measured IC50 goes with Cl.N=C1[C@@H](O)[C@H](O)[C@@H](CO)N1N [4Cl] ?
### Response 6.6
